# Assay Protocol: AP1 Signaling Pathway (AID 357);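 note: ME-180 reporter cells stimulated with EGF at its EC50 level; % is set by controls: 0 for no effect and ±100 for the full control effect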
# Run Parameters: ME-180 (cervical carcinoma) AP-1-bla reporter, EGF-induced, beta-lactamase ratio, 5 h; at 17.2 µM (top of the series) unless noted
Inconclusive results are not listed.
Give measured activity change, negative = inhibition for each item. Keep answers brief.
Answers are plain numbers, in %.

| Compound | Numeric Result |
| --- | --- |
| O=C(c1cccc2ccccc12)N1CCC(N2CCN(c3ccccc3)CC2)CC1 | -7.39 |
| CCOC(=O)c1[nH]c2ccc(C)cc2c1N | -6 |
| COc1ccccc1-c1cc(-c2cc(Cl)ccc2O)n[nH]1 | 5.68 |
| CCOC(=O)C1=C(N)N2C(=O)CSC2=C(C(=O)OC)C1 | -12.4 |
| CC(C)COc1nc2ccccc2nc1C(C#N)C(=O)NC1CCCCC1 (stereo unspecified) | -1.14 |
| CCOC(=O)CSc1nnc2n(C3CCCCC3)c(=O)c3c4c(sc3n12)CCCC4 | -9.49 |
| Nc1ccc2cn[nH]c2c1 | 4.71 |
| CCn1nnc(C(=O)O)c1C(=O)O | 3.44 |

For the 5 compounds below, give their activity change, negative = inhibition values.
1. O=C(c1ccc(-n2cnnn2)cc1)N1CCOCC1
2. COC(=O)c1cc2c(=O)n3cccc(C)c3nc2n(Cc2cccnc2)c1=N
3. COC(=O)c1cc(=O)n2c(-c3ccc(OC)cc3)csc2n1
4. COCCNc1oc(-c2ccc(Cl)cc2)nc1C#N
5. Cc1cc(CC(=O)O)c(C)cc1CC(=O)O

[A]
[10.3, 7.65, -2.63, -8.7, 11.9]

For the 3 compounds below, give their activity change, negative = inhibition values.
1. CC1(C)CC(=O)C2=C(C1)N(Cc1ccco1)C(=O)C2(NC(=O)c1cccnc1)C(F)(F)F (stereo unspecified)
2. Cc1ccc(N(CN2C(=O)NC(C)(C)C2=O)CN2C(=O)NC(C)(C)C2=O)cc1
3. Cc1ccc(-n2c(N)c(C(N)=O)sc2=S)cc1

[A]
1: -3.2; 2: 5; 3: 6.9

* * *

# System: PC26
# Assay Protocol: qHTS profiling for inhibitors of Plasmodium falciparum proliferation (AID 504749);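 note: 0% = DMSO vehicle and full inhibition = artemisinin control; nearly all actives have a fitted effect of over 60% in size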
# Run Parameters: P. falciparum in erythrocytes, SYBR Green DNA, 72 h; series mostly up to 28.7 µM
Results filed as inconclusive are left out. Active and inactive are the calls of the source. The call rests on the fitted dose curve; in most records, active means well fitted inhibition curve with a large enough effect; inconclusive means small, poorly fitted or top-dose-only effect; inactive means flat fitted curve, though single readings scatter.
Readout Name: outcome

Worked cases, answers included:
| Compound | outcome |
| --- | --- |
| OCC1O[C@H](Oc2ccc(O)cc2)C(O)C(O)C1O (stereo partly drawn) | inactive |
| OCC1O[C@@H](O[C@@H]2C(CO)OC(O)C(O)C2O)C(O)C(O)C1O (stereo partly drawn) | inactive |
| CC1CN(c2c(F)c(N)c3c(=O)c(C(=O)O)cn(C4CC4)c3c2F)CC(C)N1 (stereo not drawn) | inactive |
| CCCC(=O)Nc1c(I)cc(I)c(C[C@H](CC)C(=O)O)c1I | inactive |
| CN1[C@@H]2CC[C@@H]1CC(OC(=O)[C@H](CO)c1ccccc1)C2 (stereo partly drawn) | inactive |
| CO/N=C(/C(=O)N[C@@H]1C(=O)N2C(C(=O)O)=C(C[n+]3ccc(N)n3CCO)CS[C@H]12)c1csc(N)n1 | inactive |
| OC[C@@H](O)C(O[C@@H]1O[C@@H](CO)[C@H](O)[C@H](O)[C@H]1O)[C@H](O)[C@@H](O)CO (stereo partly drawn) | inactive |

Let us examine a further case.
[Q] Please state recorded outcome (tested on PC26) of CNC1C(O)C(OC2C(NC(=O)C(O)CN)CC(N)C(OC3OC(CN)C(O)C(O)C3O)C2O)OCC1(C)O (stereo not drawn)
[A] inactive
